Would you mind telling me the reported abundance fitness of each entry?
B1: Formin-binding protein 4, residues 200 to 261; numbered along this chain, Q8N3X1 (parent)
chain: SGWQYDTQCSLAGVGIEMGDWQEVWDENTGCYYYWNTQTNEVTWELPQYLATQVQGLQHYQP

Variants of: B1
Test: abundance fitness (aPCA) (normalised: wild type 0, dead -1); higher = more abundant; growth selection in yeast, the domain comes from the species named
Conditions: Homo sapiens
# respond with the number and nothing more

Data request, read-out abundance fitness, for SGWQYDTQCSLAGVGIEMGDWQEVWDENTGCYYYWNTQTNMVTWELPQYLATQVQGLQHYQP
-0.34

Now this one: SGWQYDTQCSLAGVGIEMGDWQEVWDENTGCYYYWNTQTNEVTWELPQYLATEVQGLQHYQP
-0.588

Now this one: SGWQYDTQCSLAGVGIEMGDWQEVWDENTGCYYYWNTQTNEVTWELPQYLATDVQGLQHYQP
-0.314

Now this one: SGWQYDTQCSLAGVGIEMGDWQEVWDENTGCYYYWNTQTNEVTWYLPQYLATQVQGLQHYQP
-0.484

Now this one: SGMQYDTQCSLAGVGIEMGDWQEVWDENTGCYYYWNTQTNEVTWELPQYLATQVQGLQHYQP
0.046

Now this one: SGWQYDTQCSLAGVGIEMGDWQEVWDENTGCYYYWNTQTNEVTWELPQALATQVQGLQHYQP
0.022

Now this one: SGWQYDTQCSLAGVGIEMGDWQEMWDENTGCYYYWNTQTNEVTWELPQYLATQVQGLQHYQP
-0.361

Now this one: SGWQYDTQCSLASVGIEMGDWQEVWDENTGCYYYWNTQTNEVTWELPQYLATQVQGLQHYQP
-0.171

Now this one: SGWQYDTQCSLAGVGIEMGDWQEVWDENTGCYYYWNTQTNDVTWELPQYLATQVQGLQHYQP
-0.268

Now this one: SGWQYDTQCSLAGVGIEMGDWQEVWDENTGCYYYWNTQTNEFTWELPQYLATQVQGLQHYQP
-0.148

Now this one: SGWQVDTQCSLAGVGIEMGDWQEVWDENTGCYYYWNTQTNEVTWELPQYLATQVQGLQHYQP
-0.534

Now this one: SGWQYDTQCSLAGVGIEMGDWQEVWDENTGCYYYWNTQTNEVTWELPQYLATQVQGLQHFQP
0.124

Now this one: SGWQYDTQTSLAGVGIEMGDWQEVWDENTGCYYYWNTQTNEVTWELPQYLATQVQGLQHYQP
0.22

Now this one: SGWQYDTQCSLAGVGIEMGDWQEVWDENTGCYYYWDTQTNEVTWELPQYLATQVQGLQHYQP
-0.612

Now this one: SGWQYDTQCSLAGVGIEMWDWQEVWDENTGCYYYWNTQTNEVTWELPQYLATQVQGLQHYQP
-0.992

Now this one: VGWQYDTQCSLAGVGIEMGDWQEVWDENTGCYYYWNTQTNEVTWELPQYLATQVQGLQHYQP
-0.052

Now this one: SGWQYDTQCNLAGVGIEMGDWQEVWDENTGCYYYWNTQTNEVTWELPQYLATQVQGLQHYQP
-0.533

Now this one: SGWQYDTQCSLAGVGIEMGDWQEVWDENTGCYYYWNTQTNEVTWELPQYLATQVQDLQHYQP
0.177

Now this one: SGWQYDTQCSLMGVGIEMGDWQEVWDENTGCYYYWNTQTNEVTWELPQYLATQVQGLQHYQP
-0.587

Now this one: SGWQYDTQCSLAGVGIEMGDWQEVWDENTGCYYYWNTQTNTVTWELPQYLATQVQGLQHYQP
-0.283

Now this one: SGWQYDTQCSLAGVGIEIGDWQEVWDENTGCYYYWNTQTNEVTWELPQYLATQVQGLQHYQP
-0.247

Now this one: SGWQYDTQCSLAGVGIEMGDWQEVVDENTGCYYYWNTQTNEVTWELPQYLATQVQGLQHYQP
-0.358

Now this one: SGWQYDTQCSLAGVGIEMGDWQEVWDENTGCYYYWNTQTNEVTWEHPQYLATQVQGLQHYQP
-0.626

Now this one: SGWQYDTPCSLAGVGIEMGDWQEVWDENTGCYYYWNTQTNEVTWELPQYLATQVQGLQHYQP
-0.568

Now this one: SGWQYDTQCSLAGVGIEMGDWQEVWDENTGCYYYWNTQTNEVTWELPQYLATVVQGLQHYQP
-0.679

Now this one: SGWQYDTQCSLAGVGIEMGDWQEVWDENTGCYYYWNTQTNEVTWELPQSLATQVQGLQHYQP
0.126

Now this one: SGWQYDTGCSLAGVGIEMGDWQEVWDENTGCYYYWNTQTNEVTWELPQYLATQVQGLQHYQP
0.105

Now this one: SGWQYDTQCSLAGVGIEMGDWQEVWDENTGCYYYWNTQTNEYTWELPQYLATQVQGLQHYQP
-0.453

Now this one: SGWQYDTQCSLAGVGIIMGDWQEVWDENTGCYYYWNTQTNEVTWELPQYLATQVQGLQHYQP
-0.373

Now this one: SGWQYDTQCSLAGVGIEMGDWQEVWDENTGCYYYWNTQTNEVTWELPQYLATHVQGLQHYQP
-0.68

Now this one: SGWQYDTQCSLAGVGIEMGDWQEVWWENTGCYYYWNTQTNEVTWELPQYLATQVQGLQHYQP
-0.256

Now this one: SGWQYDTQCSLAGVCIEMGDWQEVWDENTGCYYYWNTQTNEVTWELPQYLATQVQGLQHYQP
-0.182

Now this one: SGWQYDTQCSLAGVGIEMGDWQEVWDENTGCYYYWNTQSNEVTWELPQYLATQVQGLQHYQP
0.017

Now this one: SLWQYDTQCSLAGVGIEMGDWQEVWDENTGCYYYWNTQTNEVTWELPQYLATQVQGLQHYQP
-0.022

Now this one: SGWYYDTQCSLAGVGIEMGDWQEVWDENTGCYYYWNTQTNEVTWELPQYLATQVQGLQHYQP
-0.176

Now this one: SGWQYDTQCSLAGTGIEMGDWQEVWDENTGCYYYWNTQTNEVTWELPQYLATQVQGLQHYQP
-0.084

Now this one: SGWQYDTQCSLAGVGIEMGDWQQVWDENTGCYYYWNTQTNEVTWELPQYLATQVQGLQHYQP
-0.431
